pEC50 by entry:
# System: Influenza A virus
# Assay overview: Antiviral activity against Influenza A virus (A/Perth/16/2009(H3N2)) infected in MDCK cells assessed as inhibition of virus-induced cytopathic effect by cell-based neutral red uptake assay
# Assay type: functional, organism-based
# pEC50 = -log10(concentration in molar units)

Field: example entries. Status: answers known.
{"columns": ["Compound", "pEC50"],
 "data": [
  ["COc1ccc(NC(=O)CN2C(=O)SC(N3N=C(c4ccc5ccccc5c4)CC3c3ccc(Cl)cc3)C2=O)cc1 (stereo not drawn)", 4.73],
  ["O=C1NC(=O)C(N2N=C(c3ccc4ccccc4c3)CC2c2ccc(Cl)cc2)S1 (stereo not drawn)", 5.55],
  ["COc1ccc(C2CC(c3ccc4ccccc4c3)=NN2C2SC(=O)NC2=O)cc1 (stereo not drawn)", 5.37]
]}

Record NC(=O)c1ncn([C@@H]2O[C@H](CO)[C@@H](O)[C@H]2O)n1 : what is its pEC50 with Influenza A virus?
4.73

Record COc1ccc(C2CC(c3ccc4ccccc4c3)=NN2C2SC(=O)N(CC(=O)Nc3ccc(C)cc3)C2=O)cc1 (stereo not drawn) : what is its pEC50 with Influenza A virus?
4.27

* * *

# Assay overview: Selectivity index, ratio of CC50 for MDCK cells to EC50 for Influenza A virus (A/duck/Minnesota/1525/1981(H5N1))
# Format: toxicity, cell-based
# Test parameters: dog, read-out: Ratio CC50/EC50
selectivity ratio by entry:
// return a plain number; no unit text

{"columns": ["Compound", "selectivity ratio"],
 "data": [
  ["O=C1NC(=O)C(N2N=C(c3ccc4ccccc4c3)CC2c2ccc(Cl)cc2)S1 (stereo unspecified)", 1.2],
  ["COc1ccc(C2CC(c3ccc4ccccc4c3)=NN2C2SC(=O)NC2=O)cc1 (stereo unspecified)", 1.6],
  ["Cc1ccc(NC(=O)CN2C(=O)SC(N3N=C(c4ccc5ccccc5c4)CC3c3ccc(Cl)cc3)C2=O)cc1 (stereo unspecified)", 1.1],
  ["COc1ccc(NC(=O)CN2C(=O)SC(N3N=C(c4ccc5ccccc5c4)CC3c3ccc(Cl)cc3)C2=O)cc1 (stereo unspecified)", 1.5]
]}

Data request, read-out selectivity ratio, for CCN1CCN(CN2C(=O)SC(N3N=C(c4ccc5ccccc5c4)CC3c3ccc(Cl)cc3)C2=O)CC1 (stereo unspecified)
1.4

* * *

# Assay overview: Cytotoxicity against MDCK cells
# Assay type: cell-based, Canis lupus familiaris
# Test parameters: dog, MDCK cells
Measured property: CC50

Data request, read-out CC50, for NC(=O)c1ncn([C@@H]2O[C@H](CO)[C@@H](O)[C@H]2O)n1
> 324 µM

* * *

# Assay overview: Selectivity index, ratio of CC50 for MDCK cells to EC50 for Influenza B virus (B/Florida/4/2006)
# Type: toxicity, cell-based
# Test parameters: dog, read-out: Ratio CC50/EC50
selectivity ratio by entry:
// return a plain number; no unit text

Field: example entries. Status: answers known.
{"columns": ["Compound", "Measured property", "Measurement"],
 "data": [
  ["COc1ccc(C2CC(c3ccc4ccccc4c3)=NN2C2SC(=O)NC2=O)cc1 (configuration not stated)", "selectivity ratio", 1.8],
  ["O=C1NC(=O)C(N2N=C(c3ccc4ccccc4c3)CC2c2ccc(Cl)cc2)S1 (configuration not stated)", "selectivity ratio", 1.6],
  ["COc1ccc(NC(=O)CN2C(=O)SC(N3N=C(c4ccc5ccccc5c4)CC3c3ccc(Cl)cc3)C2=O)cc1 (configuration not stated)", "selectivity ratio", 1.4],
  ["CCN1CCN(CN2C(=O)SC(N3N=C(c4ccc5ccccc5c4)CC3c3ccc(Cl)cc3)C2=O)CC1 (configuration not stated)", "selectivity ratio", 2.1],
  ["Cc1ccc(NC(=O)CN2C(=O)SC(N3N=C(c4ccc5ccccc5c4)CC3c3ccc(Cl)cc3)C2=O)cc1 (configuration not stated)", "selectivity ratio", 1.3],
  ["COc1ccc(C2CC(c3ccc4ccccc4c3)=NN2C2SC(=O)N(CN3CCN(Cc4ccccc4)CC3)C2=O)cc1 (configuration not stated)", "selectivity ratio", 1]
]}

Read the next record carefully.
Data request, read-out selectivity ratio, for COc1ccc(C2CC(c3ccc4ccccc4c3)=NN2C2SC(=O)N(CC(=O)Nc3ccc(C)cc3)C2=O)cc1 (configuration not stated)
2.1
